Target: Grp94 (Canis lupus familiaris)
Assay: FP competition binding assay, Grp94
Set-up: species or system Canine
Conditions: read-out: IC50 Grp94; FP competition, Cy3B-GM probe
property: IC50 (µM)
Supply the numeric figure in µM, leaving out any unit text.

Exercise: Param item = C#CCCCn1cnc(N)c2nc(Sc3cc(Cl)cc(Cl)c3)nc1-2 [9n′] ; retrieve measured IC50.
Solution: 100

* * *

Experiment: Aqueous solubility
Format: physicochemical
Conditions: water
property: solubility

Exercise: Param item = CC(C)NCCCn1c(Sc2cc(Cl)cc(Cl)c2)nc2c(N)ncnc21 [18c] ; retrieve measured solubility.
Solution: > 10 mg/mL

* * *

Biological target: Grp94 (Canis lupus familiaris, UniProt P41148)
Sequence (P41148 22-804): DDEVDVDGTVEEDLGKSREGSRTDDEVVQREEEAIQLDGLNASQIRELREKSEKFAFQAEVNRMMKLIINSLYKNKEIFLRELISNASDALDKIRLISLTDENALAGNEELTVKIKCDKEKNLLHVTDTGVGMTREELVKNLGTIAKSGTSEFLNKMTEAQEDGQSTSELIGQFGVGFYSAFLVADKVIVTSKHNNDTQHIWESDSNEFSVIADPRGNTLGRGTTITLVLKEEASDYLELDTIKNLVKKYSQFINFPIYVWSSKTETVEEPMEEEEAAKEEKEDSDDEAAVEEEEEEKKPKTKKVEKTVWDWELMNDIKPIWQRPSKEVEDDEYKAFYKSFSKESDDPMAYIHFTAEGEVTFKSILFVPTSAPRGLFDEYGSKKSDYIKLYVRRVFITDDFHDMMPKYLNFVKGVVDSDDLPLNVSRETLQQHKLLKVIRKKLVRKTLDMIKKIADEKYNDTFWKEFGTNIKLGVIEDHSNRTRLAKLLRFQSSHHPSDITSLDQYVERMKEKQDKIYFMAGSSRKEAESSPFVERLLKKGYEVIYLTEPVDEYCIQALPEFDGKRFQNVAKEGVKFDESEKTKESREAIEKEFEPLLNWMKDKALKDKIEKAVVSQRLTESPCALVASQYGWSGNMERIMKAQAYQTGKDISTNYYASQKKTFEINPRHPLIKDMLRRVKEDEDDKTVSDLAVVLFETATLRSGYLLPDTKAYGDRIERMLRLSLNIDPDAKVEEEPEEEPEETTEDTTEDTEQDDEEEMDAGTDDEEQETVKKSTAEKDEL
Assay: FP competition binding assay, Grp94
Design: species or system Canine
Conditions: ratio of IC50 values, Table 4
property: Hsp90α/Grp94

C#CCCCn1cnc(N)c2nc(Sc3ccc(Cl)cc3Cl)nc1-2 ... >210 µM

Exercise: Param item = CC(C)NCCCn1cnc(N)c2nc(Sc3cc(Cl)cc(Cl)c3)nc1-2 [18c′] ; retrieve measured Hsp90α/Grp94.
Solution: >39 µM

Exercise: Param item = C#CCCCn1cnc(N)c2nc(Sc3cc(Cl)c(Cl)cc3Cl)nc1-2 ; retrieve measured Hsp90α/Grp94.
Solution: >48 µM

Exercise: Param item = C#CCCCn1cnc(N)c2nc(Sc3c(C)cc(C)cc3C)nc1-2 ; retrieve measured Hsp90α/Grp94.
Solution: >5 µM

* * *

Biological target: Hsp90β (Homo sapiens, UniProt P08238)
Sequence (P08238 whole entry): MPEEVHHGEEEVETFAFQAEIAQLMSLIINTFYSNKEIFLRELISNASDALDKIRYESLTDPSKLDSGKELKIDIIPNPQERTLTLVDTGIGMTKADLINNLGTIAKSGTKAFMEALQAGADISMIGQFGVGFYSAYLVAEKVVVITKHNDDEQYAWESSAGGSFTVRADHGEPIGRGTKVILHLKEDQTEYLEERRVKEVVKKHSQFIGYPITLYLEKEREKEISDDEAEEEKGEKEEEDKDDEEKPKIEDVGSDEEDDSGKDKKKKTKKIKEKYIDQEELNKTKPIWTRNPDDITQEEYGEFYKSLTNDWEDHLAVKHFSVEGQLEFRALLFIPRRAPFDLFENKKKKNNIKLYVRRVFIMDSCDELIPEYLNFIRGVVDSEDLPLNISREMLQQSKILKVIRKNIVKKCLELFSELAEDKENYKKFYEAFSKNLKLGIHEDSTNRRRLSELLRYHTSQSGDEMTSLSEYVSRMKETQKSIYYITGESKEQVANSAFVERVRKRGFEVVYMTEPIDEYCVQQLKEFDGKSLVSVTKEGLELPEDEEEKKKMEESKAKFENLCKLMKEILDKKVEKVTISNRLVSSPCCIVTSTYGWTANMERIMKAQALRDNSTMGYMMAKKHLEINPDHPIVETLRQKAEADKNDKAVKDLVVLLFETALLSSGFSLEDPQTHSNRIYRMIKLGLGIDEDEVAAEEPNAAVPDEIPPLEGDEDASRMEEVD
Test: FP competition binding assay, Hsp90β
pIC50: −log10 of the molar value.
property: pIC50

Exercise: Param item = C#CCCCn1cnc(N)c2nc(Sc3cc(C(F)(F)F)ccc3Cl)nc1-2 [9m′] ; retrieve measured pIC50.
Solution: < 4.00
